- Test system: MiaPaCa-2 cells
- TEST DESCRIPTION: Cytotoxicity assay in MiaPaCa-2 (XTT, 72 h)
- Assay type: cell-based
- EXPERIMENTAL CONDITIONS: 1 μM, DMSO control = 0% inhibition
Task for the reader: assign each of the following compounds its reported Cell cytotoxicity assay (% Inhibition at 1 μM).
# unit: % | format: bare number

State the recorded Cell cytotoxicity assay (% Inhibition at 1 μM) for this entry: Cc1ccc(OCC2CC(CNC(=O)c3ccc4nccn4c3)=NO2)c(-c2ccc(F)nc2)n1 (single isomer, unassigned) [Example 12a]
45

Request the reported Cell cytotoxicity assay (% Inhibition at 1 μM) associated with O=C(NCC1=NOC(COc2cccnc2-c2ccc(F)nc2)C1)c1ccc2nccn2c1 (single isomer, unassigned) [Example 4a]
8

Suppose we examine the compound O=C(NCC1=NOC(COc2cc(Cl)cnc2-c2cccnc2)C1)c1ccc2nccn2c1 (single isomer, unassigned) [Example 13b] ; what Cell cytotoxicity assay (% Inhibition at 1 μM) value has been reported?
100

Could you tell me which Cell cytotoxicity assay (% Inhibition at 1 μM) is on file for O=C(NCC1=NOC(COc2cccnc2-c2ccc(Cl)nc2)C1)c1ccc2nccn2c1 (single isomer, unassigned) [Example 8b] ?
92

I would be grateful if you could share the reported Cell cytotoxicity assay (% Inhibition at 1 μM) for N#Cc1ccc(OCC2CC(CNC(=O)c3ccc4nccn4c3)=NO2)c(-c2ccc(F)nc2)n1 (single isomer, unassigned) [Example 10b] .
100

May I ask what Cell cytotoxicity assay (% Inhibition at 1 μM) has been recorded for Cc1cnc(-c2ccc(F)nc2)c(OCC2CC(CNC(=O)c3ccc4nccn4c3)=NO2)c1 (single isomer, unassigned) [Example 11b] ?
100

For the compound O=C(NCC1=NOC(COc2cc(F)cnc2-c2ccc(F)nc2)C1)c1ccc2nccn2c1 (single isomer, unassigned) [Example 9b] , what Cell cytotoxicity assay (% Inhibition at 1 μM) is on record?
95

What does the record list as Cell cytotoxicity assay (% Inhibition at 1 μM) for O=C(NCC1=NOC(COc2cccnc2-c2ccc(F)nc2)C1)c1ccc2nccn2c1 (single isomer, unassigned) [Example 4b] ?
95

// query Cell cytotoxicity assay (% Inhibition at 1 μM) value for entry O=C(NCC1=NOC(COc2cc(Cl)cnc2-c2ccc(F)nc2)C1)c1ccc2nccn2c1 (single isomer, unassigned) [Example 14b]
100

Report Cell cytotoxicity assay (% Inhibition at 1 μM) for O=C(NCC1=NOC(COc2cccnc2-c2ccc(Cl)nc2)C1)c1ccc2nccn2c1 (single isomer, unassigned) [Example 8a] please.
10

Given the compound O=C(NCC1=NOC(COc2cc(F)cnc2-c2ccc(F)nc2)C1)c1ccc2nccn2c1 (single isomer, unassigned) [Example 9a] , what is its reported Cell cytotoxicity assay (% Inhibition at 1 μM)?
12

Entry Cc1ccc(OCC2CC(CNC(=O)c3ccc4nccn4c3)=NO2)c(-c2ccc(F)nc2)n1 (single isomer, unassigned) [Example 12b] : reported Cell cytotoxicity assay (% Inhibition at 1 μM) = ?
100

Item O=C(NCC1=NOC(COc2cc(Cl)cnc2-c2cccnc2)C1)c1ccc2nccn2c1 (single isomer, unassigned) [Example 13a] has what recorded Cell cytotoxicity assay (% Inhibition at 1 μM)?
20

---

- Tested on: MiaPaCa-2 cells
- TEST DESCRIPTION: Cytotoxicity assay in MiaPaCa-2 (XTT, 72 h)
- Assay type: cell-based
- EXPERIMENTAL CONDITIONS: 10 μM, DMSO control = 0% inhibition
Kindly state Cell cytotoxicity assay (% Inhibition at 10 μM) for each of the entries shown.
Answer by giving the amount and then stating its unit.

Request the reported Cell cytotoxicity assay (% Inhibition at 10 μM) associated with N#Cc1ccc(OCC2CC(CNC(=O)c3ccc4nccn4c3)=NO2)c(-c2ccc(F)nc2)n1 (single isomer, unassigned) [Example 10b]
100%

# get_value(readout='Cell cytotoxicity assay (% Inhibition at 10 μM)', item= O=C(NCC1=NOC(COc2cc(Cl)cnc2-c2ccc(F)nc2)C1)c1ccc2nccn2c1 (single isomer, unassigned) [Example 14b] )
98%

Returns the measured Cell cytotoxicity assay (% Inhibition at 10 μM) for the input compound. Input: O=C(NCC1=NOC(COc2cccnc2-c2ccc(F)nc2)C1)c1ccc2nccn2c1 (single isomer, unassigned) [Example 4b]
94%

Values compiled from patent US20170204092A1.
